Taken from the supplement of paper PMC9170038.

system: MS2 coat protein; experiment: apparent KD of MS2 coat protein; higher = weaker reporter binding; settings: Eterna round: R107; input ligand: theophylline 2 mM
Outcome label depends on apparent KD of MS2 coat protein relative to 30 nM: at/above gives YES, below gives NO.

Problem: Confirm if apparent KD of MS2 coat protein reported for the sequence AUAUAUACAUGAGGAUCACCCAUGUUAUUACGAGGACCGGUACGGCCGCCACUCGAUAGAGUAGAAGUAAAUUUUAAUUCAUGUA [JR_SSTryptoA_Sub007] is 30 nM or above.
Solution: NO

Problem: What about UAGUUGCUGACGGCCGCCACUAGAACAUGAGGAUCACCCAUGUAUUCUAGUGGACAUGGGUGGACUAGGACCGGGUCAGCAACAU [(Trp1)-(Ms2)-(T)'-(M)'-(Trp2)_Design9] ?
Solution: NO

Problem: Do the same for UAUAGUACCAGACAUGAGGAUCACCCAUGUCGAGGACCGGUACGGCCGCCACUCGGCAGUUUGCGUCCUCAGGUACUCCGGGUCA [Larisotexe] please
Solution: NO

Problem: // next record GGCACAUAGUCGGCCGCCACUAGUGGGAAAUGGGAGAACAUGAGGAUCACCCAUGUAGCGUAGCCUAGGACCGGGACUAUGUGCC [Elephant]
Solution: YES

====

test system: MS2 coat protein; test: apparent KD of MS2 coat protein; designed switch direction (-1 OFF switch, 1 ON switch): -1; higher = weaker reporter binding; details: Eterna round: R95; input ligand: FMN 200 uM
Task for the reader: assign each of the following sequences its reported apparent KD of MS2 coat protein.
Give the value in nM but do not write nM after it.

Problem: Form field: reported apparent KD of MS2 coat protein of CUGGUCCGAGGAUAUAUUAAGUGAAACAUGAGGAUCACCCAUGUUAUUUGAUGGAUGUAAAUAGAAGGCGGACUAG [JL-ex5-3.13] (puzzle: Exclusion 5)
Solution: 23.8

Problem: Moving on to the next sequence: GUAGAGUCAGGAUAUACAGAAGAAGCAUGGAAAACAUGGAUACAUGAGGAUCACCCAUGUAGAAGGGACUCUAC [ChP 11-04-2015 #2] (puzzle: Exclusion 2)
Solution: 83.6

Problem: Subsequent entry: GAAAAGGUAGGAUAUACGAAAAAAAAGGGUAGAGAAAAAACACAUGAGGAUCACCCAUGUAGAAGGACCAAAAG [salish99_ex2_r3_023] (puzzle: Exclusion 2)
Solution: 84.8

Problem: Same question, GUGGAACAUGAGGAUCACCCAUGUGAGGAUAUGUGAGAAGGAUUUGAGAGGGAGAGGGACAGAAGGCACUAGGA [JR_Exclu1_Sub084] (puzzle: Exclusion 1) this time
Solution: 32.7

Problem: Next record, please: GAAAAGGUAGGAUAUACGUAAAAAAAGGGUAGAAAAAAAACACAUGAGGAUCACCCAUGUAGAAGGACCAAAAG [salish99_ex2_r3_087] (puzzle: Exclusion 2)
Solution: 88.3

Problem: Try UGGGUUACCCAUGGAAGUAACAUGAGGAUCACCCAUGUAGGGCAAGUUUUUUGUUCGUCAUAGGCCGUGGGUUUGGA [JR_SV3TOV1_Sub021] (puzzle: Sensor v3, turn-off variant 1) next.
Solution: 30.4

Problem: Query GCUGGAGCAGGAUAUUCAAUAUCACACAUGAGGAUCACCCAUGUCCAGCGAAAGCUGGAGGGAGAAGGGCUCUAGC [Mat - Exclusion 5 - Eli mod - D98] (puzzle: Exclusion 5) next
Solution: 17.6

Problem: Entry to check: CCGGCUUAGCAGGAUAUAGGAGUCGAUAGACACCUAGAAGGGCUAACAUGAGGAUCACCCAUGUGUCCUACCGG [Fiskers Ex 6 - 100] (puzzle: Exclusion 6)
Solution: 65

Problem: Now try AGUAACUAUCACGAAAGUGAUAGUUACAACAAGUGAUAAACAUGAGGAUCACCCAUGUCCUCAUUUGCUCGUUUUAU [Sensor 3 - 15] (puzzle: Sensor v3, turn-off variant 2) .
Solution: 328

Problem: Same read-out for AGAAAGCAAGGAUAUACAAGGAAACGACGGAAAGUAGAGAGACAUGAGGAUCACCCAUGUAGAAGGUGCGAGAA [JR_Exclu2_Sub032] (puzzle: Exclusion 2) ?
Solution: 33.8

Problem: What would you report for GACUGAACGUGGUCUGGUUACAUGAGGAUCACCCAUGUAGGUCUAAGAACAUGUCUUUUGUACGCUCGUCUUAUAUA [JR_SV3TOV1_Sub066] (puzzle: Sensor v3, turn-off variant 1) ?
Solution: 16.7

====

tested on: MS2 coat protein; assay: apparent KD of MS2 coat protein; designed switch direction (-1 OFF switch, 1 ON switch): -1; higher = weaker reporter binding; settings: Eterna round: R95; input ligand: none
Threshold check on apparent KD of MS2 coat protein: at or above 0.05 µM gives Satisfied, strictly below gives Not satisfied.

Problem: Reported apparent KD of MS2 coat protein at or above 0.05 µM? AAAUCCGCUGAGGAUAUGAUGACUGAGAGGUCAUCAGAAGGCGGUACAUGAGGAUCACCCAUGUCUAUGGGCAA [Ex-6 Malc#29] (puzzle: Exclusion 6)
Solution: Satisfied

Problem: Record: GAAAAGGUAGGAUAUACGGAAAAAAAGGGUAGAAAAAAAACACAUGAGGAUCACCCAUGUAGAAGGACCAAAAG [salish99_ex2_r3_030] (puzzle: Exclusion 2)
Solution: Not satisfied

Problem: Again, but for ACAAGCUUUUUGCUCGGGUACAUGAGGAUCACCCAUGUUUGGGUUUAUUGAGGUUGUGUGGGCGUGCGCUGCAGGUU [JR_SV3TOV1_Sub075] (puzzle: Sensor v3, turn-off variant 1)
Solution: Satisfied

Problem: Same question for AGUCCAGAUGUUAGGAUAUGCAACUAGCCAUUGUAGCAGAAGGAACAUGAGGAUCACCCAUGUACAAAGACCCG [Edgeraer] (puzzle: Brourd's mod of Exclusion 4) please.
Solution: Not satisfied

Problem: Try CAAAACAGAGGAUAUACAUUUCCUCACCGCCAAAUGGCGGAACAUGAGGAUCACCCAUGUAGAAGGCUGGAAAA [Gesous] (puzzle: Exclusion 2) next.
Solution: Satisfied

Problem: Also UUUAAUUUUUUUUUUUUACAAGCUUUUUGCUCGUCUUAUACAUGAGGAUCACCCAUGUGAGUGGGAAGUAAAUUAUC [JMF 55] (puzzle: Sensor v3, turn-off variant 2) ?
Solution: Not satisfied

Problem: // query: CUUCACCCACCUGAGCUCACCCACAUACCUGCUCAGGUGACAUGAGGAUCACCCAUGUUUUUUGCCCGUCUUAUCUU [Soteonge] (puzzle: Sensor v3, turn-off variant 2)
Solution: Not satisfied

Problem: GAUUAUGCGAGCUUUAGGGACAUGAGGAUCACCCAUGUUCGUCUUAUUGAUCUAGGUACGCUGACGUACCUAGAUCU [JL-sv1-2.35 Brourd mod] (puzzle: Sensor v3, turn-off variant 1) , same question.
Solution: Not satisfied

Problem: Also AGUACUUACUCGAUAGUGUUAGUACAAUAAGCUUGUGAAACAUGAGGAUCACCCAUGUCCUCAUAAGCUCGUCUUAU [salish99_TOv2_r3_1005] (puzzle: Sensor v3, turn-off variant 2) ?
Solution: Not satisfied

Problem: Try this sequence too: GGUCAAGAACAGAACCGCGCUGCCCUUGACCGCUCAUUUACAUGAGGAUCACCCAUGUUUUUUGCUUGUCUUGUUAC [Qugeon] (puzzle: Sensor v3, turn-off variant 2)
Solution: Not satisfied

====

system: K4 kissing-loop RNA reporter; assay: apparent KD of K4 kissing-loop reporter; higher = weaker reporter binding; settings: Eterna round: R107; input ligand: none;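 note: bound reporter read as fluorescence of individual clusters on recovered sequencing chips by microscopy, with normalized cluster intensities fitted with a binding model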
Classify by measured apparent KD of K4 kissing-loop reporter: 1.0 if it is equal to or exceeds 100 nM, 0.0 if it is smaller.

Problem: # check: apparent KD of K4 kissing-loop reporter of GGAUCCACCAGUGAUGUUGGAGAAAACUCGAAGGAUAUGACGAAAGUCAGAAGGUUGUAGACUGGACAAAGUCCGGUCGGAUCCA [FmnA 23 G30+U56] is greater than or equal to 100 nM
Solution: 1.0

Problem: Try the sequence GGUAGCAUGGCGGCCGCCACUCUUCAUUAGUGAUGUUAAUGCCGAGUGCGCUAACUCCAACAGGAGAGGACCGGGCCAUGCUACC
Solution: 1.0

Problem: Next sequence up: GCCGUAGAUCGAAGGAGCGUGCAAGAAUCGUAGUGAUGUUACGGAGAGUGUCACGCCGUCGCACAGGUAGGUCGCGAUCUACGGC
Solution: 0.0

Problem: Please do the same for UGAUACCAGACUGAUACCAGCUAGUGAUGUUAGCUGAUCUAAGGACCGUCAAAGACGGCUAGCCCUUGGCAGCAGUCUGGUAUCU [TheoBX 13 #SwitchBubble #StaticStem] as well.
Solution: 1.0

Problem: And the next one, UAGGAGUGAUGUUCCUUUAGCAGGUAGGAAGGAGCGCCCAUUUGGGCAGGUAGGUCGCCUACUGGCCCUGAGUUAAACCUUAGGC [#11 K4 Arginine A Same State] ?
Solution: 1.0

Problem: UGAUAGGACAGAAGGAGCGGUAGUGAUGUUACCAAAAGGUUAAGGUGUCAAAAGACACCCUGCCAGGUAGGUCGCUGUCCUAUCU ?
Solution: 1.0
